The measured values listed here are drawn from patent US20180015176A1.

molecular target: T1, TPP-599 (HUMAN-TNFRSF12Aaa28-80-hIgG1-Fc) (human, biotinylated with Biotin-LC-NHS (about 2-fold molar excess)); test: ELISA, soluble Fab on 2.5 nM biotinylated TWEAKR-Fc, anti-c-myc detection
T1 construct: Dimeric Fc-fused extracellular domain of human TWEAKR, used biotinylated in the panning and the Fab ELISA; also called TWEAKR Fc; TWEAKR-Fc
observed.property: binding result

TPP-883 single-substitution variant G102T of CDR-H3 (soluble Fab) (Fab, V domains shown, Soluble Fab; also called best single-substitution variant G102T) VH: EVQLLESGGGLVQPGGSLRLSCAASGFTFSPYPMMWVRQAPGKGLEWVSYISPSGGKTHYADSVKGRFTISRDNSKNTLYLQMNSLRAEDTAVYYCARGGDTYFDYFDYWGQGTLVTVSS VL: DIQMTQSPATLSASVGDRVTITCRASQSISSYLNWYQQKPGKAPKLLIYAASSLQSGVPSRFSGSGSGTDFTLTISSLQPEDFATYYCQQSYSSPGITFGPGTKVEIK : binds
